TARGET UNDER TEST: Fuc(a1-2)Gal
EXPERIMENT: glycan array binding signal (z-score within array); higher = stronger binding
APPLIED CONDITIONS: glycan notation: IUPAC condensed, linker removed
The full list was thinned out, with the strongest signals kept by preference.
Task for the reader: assign each of the following binders its reported glycan array binding signal (z-score).
Answers are plain numbers.

// for each binder in input: emit glycan array binding signal (z-score)
1. MGL (Homo sapiens), Q8IUN9 (protein) MTRTYENFQYLENKVKVQGFKNGPLPLQSLLQRLCSGPCHLLLSLGLGLLLLVIICVVGFQNSKFQRDLVTLRTDFSNFTSNTVAEIQALTSQGSSLEETIASLKAEVEGFKQERQAGVSELQEHTTQKAHLGHCPHCPSVCVPVHSEMLLRVQQLVQDLKKLTCQVATLNNNASTEGTCCPVNWVEHQDSCYWFSHSGMSWAEAEKYCQLKNAHLVVINSREEQNFVQKYLGSAYTWMGLSDPEGAWKWVDGTDYATGFQNWKPGQPDDWQGHGLGGGEDCAHFHPDGRWNDDVCQRPYHWVCEAGLGQTSQESH
2. AT3G09350(27) (Arabidopsis thaliana), Q84J81 (protein) MAKDGPNWDGLLKWSLSHADGTRPTRQLSEEDRKWFMEAMQSQTVDVVKRMKEITLVMQTPEQVLVEHGVTPEDIQDLLDELQEHVESIDMANDLHSIGGLVPLLSFLKNSHANIRAKAADVVSTIVQNNPRSQELVMETNALESLLSNFTSDTDIHARTQALGAISSLIRHNKPGVTAFKLANGYAGLRDALASDSVRFQRKALNLLQYLLQEDDSDRSIATGLGFPRVMMHLASSDDAEIREAALRGLLELSREKNDGSSSIDKSDEKLRQLLEERIKGITLMSQEDLETVKEERQLVDLLWSICYNEPSSLREKGLVVLPGEDALPPDVASKLFEPPLRASAANRNATEKKDEPMKLLGP
3. CVNH0 (Neurospora crassa), Q7S6U4 (protein) GSHIGPYMSFHVTAEDARIEVRDNRTILFARLRREDGEWNDASYELDQIIGNNDGHFQWGGQNFTETAEDIRFHPKEGAAEQPILRARLRDCNGEFHDRDVNLTEIVENVNGEFQAKF
4. Langerin CRD (Homo sapiens), Q9UJ71 (protein) QVVSQGWKYFKGNFYYFSLIPKTWYSAEQFCVSRNSHLTSVTSESEQEFLYKTAGGLIYWIGLTKAGMEGDWSWVDDTPFNKVQSVRFWIPGEPNNAGNNEHCGNIKAPSLQAWNDAPCDKTFLFICKRPYVPSEPSAWSHPQFEK

[-0.232, -0.113, -0.372, 0.647]

// for each binder in input: emit glycan array binding signal (z-score)
1. AT1G15820(NC) (Arabidopsis thaliana) (protein) MAMAVSGAVLSGLGSSFLTGGKRGATALASGVGDAIAPFSFGSLLGTQLLLMGWVESKRWVDFFNPDSQSVEWATPWSKTAENFANYTGDQGYPGGRFFDPLGLAGKNRDGVYEPDFEKLERLKLAEIKHSRLAMVAMLIFYFEAGQGKTPLGALGL
2. SGC, Q9M345 (protein) QNLNFTYNGFHPPLTDISLQGLATVTPNGLLKLTNTSVQKTGHAFCTERIRFKDSQNGNVSSFSTTFVFAIHSQIPTLSGHGIAFVVAPTLGLPFALPSQYIGLFNISNNGNDTNHIFAVEFDTIQSSEFGDPNDNHVGIDLNGLRSANYSTAGYRDDHDKFQNLSLISRKRIQVWIDYDNRSHRIDVTVAPFDSDKPRKPLVSYVRDLSSILLEDMYVGFSSATGSVLSEHFLVGWSFRLNGEAPMLSLSKLPKLPRFEPRRIS

4.29
-0.354
